target: PAR4 (Homo sapiens (Human), UniProt Q96RI0); assay: FLIPR assay in PAR4-expressing HEK293 cells (PAR4 antagonist activity, calcium mobilization); format: cell-based; details: FLIPR assay as described in Example A
Sequence (Q96RI0 18-385): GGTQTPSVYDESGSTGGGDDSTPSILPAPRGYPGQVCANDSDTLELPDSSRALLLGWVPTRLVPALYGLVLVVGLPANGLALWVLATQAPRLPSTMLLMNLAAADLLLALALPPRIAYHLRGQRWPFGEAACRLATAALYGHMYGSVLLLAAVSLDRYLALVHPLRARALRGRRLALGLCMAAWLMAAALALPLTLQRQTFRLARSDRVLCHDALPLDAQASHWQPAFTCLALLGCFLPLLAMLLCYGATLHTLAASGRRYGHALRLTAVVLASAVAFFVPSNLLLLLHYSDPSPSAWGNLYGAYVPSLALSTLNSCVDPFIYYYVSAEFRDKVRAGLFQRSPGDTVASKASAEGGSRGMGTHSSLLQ
pIC50: −log10 of the molar value.
Classification field: T = pIC50 at or over 8; F = pIC50 under 8.

- compound: "COc1nn2cc(-c3cc4ccc(OCc5ccccc5)cc4o3)nc2s1"
  class label: "F"
- compound: "CC(F)(F)c1nn2cc(-c3cc4ccc(F)cc4o3)nc2s1"
  class label: "F"
- compound: "COc1cc(OCc2cccc(OCc3cc(F)cc(OCc4ccccc4)c3)c2)c2cc(-c3cn4nc(OC)sc4n3)oc2c1"
  class label: "F"
- compound: "Cc1cccc2cc(-c3cn4nc(C(C)(F)F)sc4n3)oc12"
  class label: "F"
- compound: "COc1cc(OCc2cccc(OCc3ccc(F)cc3Cl)c2)c2cc(-c3cn4nc(OC)sc4n3)oc2c1"
  class label: "T"
- compound: "CNc1nn2cc(-c3cc4ccccc4o3)nc2s1"
  class label: "F"
- compound: "CC(F)c1nn2cc(-c3cc4ccccc4o3)nc2s1 (stereo not drawn)"
  class label: "F"
- compound: "COc1nn2cc(-c3cc4c(Cl)nccc4o3)nc2s1"
  class label: "F"
- compound: "COc1cc2oc(-c3cn4nc(SC)sc4n3)cc2cc1Cl"
  class label: "T"
- compound: "COc1cc(OC(C)C)c2cc(-c3cn4nc(Br)sc4n3)oc2c1"
  class label: "F"
- compound: "COc1nn2cc(-c3nc4ccc(C)cc4s3)nc2s1"
  class label: "F"
- compound: "COc1cc2oc(-c3cn4nc(Br)sc4n3)cc2cc1Br"
  class label: "F"
- compound: "COc1cc(OCc2cccc(OCc3ccc(OC(F)(F)F)cc3)c2)c2cc(-c3cn4nc(OC)sc4n3)oc2c1"
  class label: "T"
- compound: "COc1cc(OCc2cccc(OCc3ccc(C(C)C)cc3)c2)c2cc(-c3cn4nc(OC)sc4n3)oc2c1"
  class label: "T"
- compound: "CSc1nn2cc(-c3nc4c(Cl)cccc4s3)nc2s1"
  class label: "F"
- compound: "COc1cc(OCc2cc(F)cc(OCc3ccccc3)c2)c2cc(-c3cn4nc(OC)sc4n3)oc2c1"
  class label: "T"
